Test system: tet operator sequence
Experiment: β-galactosidase activity of a tetracycline-regulated promoter in transformed E. coli with revTetR, in the presence and absence of anhydrotetracycline (atc)
Format: cell-based, Escherichia coli
Conditions: RevTetR isolate cultured in the absence of anhydrotetracycline (ATC)
metric: β-Galactosidase Activity, Cultured Without ATC
Please state the value as a number alone, without comment.

Report β-Galactosidase Activity, Cultured Without ATC for TetRrev29/35: revTetR(BD) L17S E23D (protein, Modified tetracycline repressor, revTetR(BD) L17S E23D) MSRLDKSKVINSAEELSNEGGIDGLTTRKLAQKLGVEQPTLYWHVKNKRALLDALAVEILARHHDYSLPAAGESWQSFLRNNAMSFRRALLRYRDGAKVHLGTRPDEKQYDTVETQLRFMTENGFSLRDGLYAISAVSHFTLGAVLEQQEHTAALTDRPAAPDENLPPLLREALQIMDSDDGEQAFLHGLESLIRGFEVQLTALLQIV
58.0891
